Details: in DMF, 323.15 K
value-kind: solubility (mole fraction)

CC(C)C(=O)Nc1ccc([N+](=O)[O-])c(C(F)(F)F)c1 | 0.494

---

Conditions: in methanol, 278.15 K
value-kind: solubility (mole fraction)

CC(C)C(=O)Nc1ccc([N+](=O)[O-])c(C(F)(F)F)c1 | 0.0296

---

Settings: in 2-methoxyethanol, 283.15 K
value-kind: solubility (mole fraction)

CC(C)C(=O)Nc1ccc([N+](=O)[O-])c(C(F)(F)F)c1 | 0.13

---

Conditions: in 2-ethoxyethanol, 308.15 K
value-kind: solubility (mole fraction)

CC(C)C(=O)Nc1ccc([N+](=O)[O-])c(C(F)(F)F)c1 | 0.204

---

Conditions: in methanol, 293.15 K
value-kind: solubility (mole fraction)

CC(C)C(=O)Nc1ccc([N+](=O)[O-])c(C(F)(F)F)c1 | 0.0532

---

Conditions: in ethyl acetate, 298.15 K
value-kind: solubility (mole fraction)

CC(C)C(=O)Nc1ccc([N+](=O)[O-])c(C(F)(F)F)c1 | 0.143

---

Details: in ethylene glycol, 278.15 K
value-kind: solubility (mole fraction)

CC(C)C(=O)Nc1ccc([N+](=O)[O-])c(C(F)(F)F)c1 | 0.00089

---

Conditions: in ethanol, 283.15 K
value-kind: solubility (mole fraction)

CC(C)C(=O)Nc1ccc([N+](=O)[O-])c(C(F)(F)F)c1 | 0.0406

---

Details: in dichloromethane, 298.15 K
value-kind: solubility (mole fraction)

CC(C)C(=O)Nc1ccc([N+](=O)[O-])c(C(F)(F)F)c1 | 0.0182

---

Settings: in 2-methoxyethanol, 288.15 K
value-kind: solubility (mole fraction)

CC(C)C(=O)Nc1ccc([N+](=O)[O-])c(C(F)(F)F)c1 | 0.142

---

Settings: in ethylene glycol, 303.15 K
value-kind: solubility (mole fraction)

CC(C)C(=O)Nc1ccc([N+](=O)[O-])c(C(F)(F)F)c1 | 0.00308

---

Settings: in 2-ethoxyethanol, 278.15 K
value-kind: solubility (mole fraction)

CC(C)C(=O)Nc1ccc([N+](=O)[O-])c(C(F)(F)F)c1 | 0.132

---

Settings: in acetone, 293.15 K
value-kind: solubility (mole fraction)

CC(C)C(=O)Nc1ccc([N+](=O)[O-])c(C(F)(F)F)c1 | 0.196

---

Details: in ethanol, 313.15 K
value-kind: solubility (mole fraction)

CC(C)C(=O)Nc1ccc([N+](=O)[O-])c(C(F)(F)F)c1 | 0.116

---

Details: in 2-methoxyethanol, 308.15 K
value-kind: solubility (mole fraction)

CC(C)C(=O)Nc1ccc([N+](=O)[O-])c(C(F)(F)F)c1 | 0.195

---

Details: in methyl acetate, 293.15 K
value-kind: solubility (mole fraction)

CC(C)C(=O)Nc1ccc([N+](=O)[O-])c(C(F)(F)F)c1 | 0.123

---

Conditions: in 2-ethoxyethanol, 288.15 K
value-kind: solubility (mole fraction)

CC(C)C(=O)Nc1ccc([N+](=O)[O-])c(C(F)(F)F)c1 | 0.153

---

Conditions: in ethyl acetate, 278.15 K
value-kind: solubility (mole fraction)

CC(C)C(=O)Nc1ccc([N+](=O)[O-])c(C(F)(F)F)c1 | 0.0998

---

Conditions: in methyl acetate, 278.15 K
value-kind: solubility (mole fraction)

CC(C)C(=O)Nc1ccc([N+](=O)[O-])c(C(F)(F)F)c1 | 0.0945
